Tested on: 931267-113-T-J1-PDC multicell spheroid viability
RUN_DESCRIPTION: Anticancer human tumor 931267-113-T-J1-PDC patient-derived colon adenocarcinoma cell line growth inhibition [PI3K]
CONDITION: second compound 0.00316 µM; first compound 0.316 µM; active compounds read low
READOUT_LABEL: viability, T/C (%)
Could you give me the number in %? Just the number is fine.

Form: compound = CCCS(=O)(=O)Nc1ccc(F)c(C(=O)c2c[nH]c3ncc(-c4ccc(Cl)cc4)cc23)c1F + CC(Nc1ccc2c(c1)OCCn1cc(N3C(=O)OCC3C(F)F)nc1-2)C(N)=O ; viability, T/C = 125

Item: Cn1nccc1Nc1nccc(-c2ccn(C(CO)c3ccc(Cl)c(F)c3)c(=O)c2)n1 (stereo not given) + COc1c(OCCCN2CCOCC2)ccc2c3n(c(=NC(=O)c4cnc(N)nc4)nc12)CCN3 | viability, T/C: 83.2

Sure, the documented viability, T/C for CNC(=O)c1ccc(N2C(=S)N(c3ccc(C#N)c(C(F)(F)F)c3)C(=O)C2(C)C)cc1F + COc1c(OCCCN2CCOCC2)ccc2c3n(c(=NC(=O)c4cnc(N)nc4)nc12)CCN3 is 99.3

For record CC(Cn1ccc(-c2ccc(C#N)c(Cl)c2)n1)NC(=O)c1cc(C(C)O)[nH]n1 (stereo not given) + COc1c(OCCCN2CCOCC2)ccc2c3n(c(=NC(=O)c4cnc(N)nc4)nc12)CCN3 the listed viability, T/C is 104

Notebook: C[C@@H](NC(=O)c1ncnc(N)c1Cl)c1ncc(C(=O)Nc2cc(C(F)(F)F)c(Cl)cn2)s1 + COc1c(OCCCN2CCOCC2)ccc2c3n(c(=NC(=O)c4cnc(N)nc4)nc12)CCN3 , viability, T/C read as 106

----------
Tested on: 931267-113-T-J1-PDC multicell spheroid viability
RUN_DESCRIPTION: Anticancer human tumor 931267-113-T-J1-PDC cell line growth inhibition [PI3K];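 note: viability read 7 days after compound addition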
CONDITION: second compound 3.16 µM; first compound 0.0316 µM; active compounds read low
READOUT_LABEL: viability, T/C (%)
Please state the figure in %; there is no need to write the unit.

Value sought: viability, T/C, system 931267-113-T-J1-PDC multicell spheroid viability, item CC(C)NCC(C(=O)N1CCN(c2ncnc3c2C(C)CC3O)CC1)c1ccc(Cl)cc1 (stereo not drawn) + CC(Nc1ncnc2nc[nH]c12)c1cc2cccc(Cl)c2c(=O)n1-c1ccccc1 . Result: 103

Per the reported 931267-113-T-J1-PDC multicell spheroid viability data, C=CC(=O)N1CCN(c2nc(=O)n(-c3c(C)ccnc3C(C)C)c3nc(-c4c(O)cccc4F)c(F)cc23)C(C)C1 (stereo not drawn) + CC(Nc1ncnc2nc[nH]c12)c1cc2cccc(Cl)c2c(=O)n1-c1ccccc1 has viability, T/C of 104

Summary: Cn1ncnc1[C@H]1c2n[nH]c(=O)c3cc(F)cc(c23)N[C@@H]1c1ccc(F)cc1 + Cc1nc(NC(=O)N2CCCC2C(N)=O)sc1-c1ccnc(C(C)(C)C(F)(F)F)c1 , 931267-113-T-J1-PDC multicell spheroid viability, viability, T/C = 70.7

----------
I'd be grateful if you could share measured viability, T/C for these entries.
Test system: 931267-113-T-J1-PDC multicell spheroid viability
RUN_DESCRIPTION: Anticancer human tumor 931267-113-T-J1-PDC cell line growth inhibition [PI3K];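 note: viability read 7 days after compound addition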
CONDITION: second compound 3.16 µM; first compound 0.1 µM; active compounds read low
Entry rule: numbers only, all in %.

Record CC1(C)CCC(CN2CCN(c3ccc(C(=O)NS(=O)(=O)c4ccc(NCC5CCOCC5)c([N+](=O)[O-])c4)c(Oc4cnc5[nH]ccc5c4)c3)CC2)=C(c2ccc(Cl)cc2)C1 + Cc1nc(NC(=O)N2CCCC2C(N)=O)sc1-c1ccnc(C(C)(C)C(F)(F)F)c1 . Reported viability, T/C: 72.8

Summary for this compound, Cn1ncc(Cl)c1-c1cc(C(=O)NC(CN)Cc2cccc(F)c2)sc1Cl (stereo unspecified) + CC(Nc1ncnc2nc[nH]c12)c1cc2cccc(Cl)c2c(=O)n1-c1ccccc1 : viability, T/C is 97.3

The compound listed as CC1(C)CCC(Nc2ncc(C(F)(F)F)c(-c3c[nH]c4c(P(C)(C)=O)c(C#N)ccc34)n2)CN1 (stereo unspecified) + Cc1nc(NC(=O)N2CCCC2C(N)=O)sc1-c1ccnc(C(C)(C)C(F)(F)F)c1 shows viability, T/C equal to 65.5

// viability, T/C value for Cn1ncnc1[C@H]1c2n[nH]c(=O)c3cc(F)cc(c23)N[C@@H]1c1ccc(F)cc1 + Cc1nc(NC(=O)N2CCCC2C(N)=O)sc1-c1ccnc(C(C)(C)C(F)(F)F)c1 : 64.6

In plain terms, C#Cc1c(F)ccc2cc(O)cc(-c3ncc4c(N5CC6CCC(C5)N6)nc(OCC56CCCN5CC(F)C6)nc4c3F)c12 (stereo unspecified) + CC(Nc1ncnc2nc[nH]c12)c1cc2cccc(Cl)c2c(=O)n1-c1ccccc1 has a documented viability, T/C of 70.3

The reported value for CNC(=O)c1ccc(N2C(=S)N(c3ccc(C#N)c(C(F)(F)F)c3)C(=O)C2(C)C)cc1F + Cc1nc(NC(=O)N2CCCC2C(N)=O)sc1-c1ccnc(C(C)(C)C(F)(F)F)c1 in terms of viability, T/C is 64.5

Summary for this compound, C#Cc1c(F)ccc2cc(O)cc(-c3ncc4c(N5CC6CCC(C5)N6)nc(OCC56CCCN5CC(F)C6)nc4c3F)c12 (stereo unspecified) + Cc1nc(NC(=O)N2CCCC2C(N)=O)sc1-c1ccnc(C(C)(C)C(F)(F)F)c1 : viability, T/C is 51.9

Short answer for CCN1CCN(Cc2ccc(Nc3ncc(F)c(-c4cc(F)c5nc(C)n(C(C)C)c5c4)n3)nc2)CC1 + Cc1nc(NC(=O)N2CCCC2C(N)=O)sc1-c1ccnc(C(C)(C)C(F)(F)F)c1 : viability, T/C was 61.9

Measured viability, T/C, Cn1nccc1Nc1nccc(-c2ccn(C(CO)c3ccc(Cl)c(F)c3)c(=O)c2)n1 (stereo unspecified) + Cc1nc(NC(=O)N2CCCC2C(N)=O)sc1-c1ccnc(C(C)(C)C(F)(F)F)c1 : 65.2

# compound CC(Cn1ccc(-c2ccc(C#N)c(Cl)c2)n1)NC(=O)c1cc(C(C)O)[nH]n1 (stereo unspecified) + CC(Nc1ncnc2nc[nH]c12)c1cc2cccc(Cl)c2c(=O)n1-c1ccccc1 ; its viability, T/C = 98.5

Value of measured viability, T/C for the entry CC(=O)c1c(C)c2cnc(Nc3ccc(N4CCNCC4)cn3)nc2n(C2CCCC2)c1=O + CC(Nc1ncnc2nc[nH]c12)c1cc2cccc(Cl)c2c(=O)n1-c1ccccc1 : 96.1

----------
Test system: 931267-113-T-J1-PDC multicell spheroid viability
RUN_DESCRIPTION: Anticancer human tumor 931267-113-T-J1-PDC cell line growth inhibition [PI3K];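 note: viability read 7 days after compound addition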
CONDITION: second compound 0.0316 µM; first compound 1 µM; active compounds read low
Would you mind telling me the reported viability, T/C of each entry?
Form entry: value (%) — number only.

For this compound ( Cn1nccc1Nc1nccc(-c2ccn(C(CO)c3ccc(Cl)c(F)c3)c(=O)c2)n1 (stereo unspecified) + CC(Nc1ncnc2nc[nH]c12)c1cc2cccc(Cl)c2c(=O)n1-c1ccccc1 ), measured viability, T/C is 90.6

viability, T/C in this record for C[C@@H](NC(=O)c1ncnc(N)c1Cl)c1ncc(C(=O)Nc2cc(C(F)(F)F)c(Cl)cn2)s1 + Cc1nc(NC(=O)N2CCCC2C(N)=O)sc1-c1ccnc(C(C)(C)C(F)(F)F)c1 : 116

Value of measured viability, T/C for the entry Cn1ncc(Cl)c1-c1cc(C(=O)NC(CN)Cc2cccc(F)c2)sc1Cl (stereo unspecified) + CC(Nc1ccc2c(c1)OCCn1cc(N3C(=O)OCC3C(F)F)nc1-2)C(N)=O : 86.3

Form: compound = C#Cc1c(F)ccc2cc(O)cc(-c3ncc4c(N5CC6CCC(C5)N6)nc(OCC56CCCN5CC(F)C6)nc4c3F)c12 (stereo unspecified) + COc1c(OCCCN2CCOCC2)ccc2c3n(c(=NC(=O)c4cnc(N)nc4)nc12)CCN3 ; viability, T/C = 23.8

For reference, reported viability, T/C for CC(Cn1ccc(-c2ccc(C#N)c(Cl)c2)n1)NC(=O)c1cc(C(C)O)[nH]n1 (stereo unspecified) + CC(Nc1ncnc2nc[nH]c12)c1cc2cccc(Cl)c2c(=O)n1-c1ccccc1 stands at 105

Value of measured viability, T/C for the entry CC1(C)CCC(Nc2ncc(C(F)(F)F)c(-c3c[nH]c4c(P(C)(C)=O)c(C#N)ccc34)n2)CN1 (stereo unspecified) + Cc1nc(NC(=O)N2CCCC2C(N)=O)sc1-c1ccnc(C(C)(C)C(F)(F)F)c1 : 74.1

# viability, T/C (compound: CC1(C)CCC(CN2CCN(c3ccc(C(=O)NS(=O)(=O)c4ccc(NCC5CCOCC5)c([N+](=O)[O-])c4)c(Oc4cnc5[nH]ccc5c4)c3)CC2)=C(c2ccc(Cl)cc2)C1 + CC(Nc1ccc2c(c1)OCCn1cc(N3C(=O)OCC3C(F)F)nc1-2)C(N)=O ) is 91.4

viability, T/C for C[C@@H](NC(=O)c1ncnc(N)c1Cl)c1ncc(C(=O)Nc2cc(C(F)(F)F)c(Cl)cn2)s1 + CC(Nc1ncnc2nc[nH]c12)c1cc2cccc(Cl)c2c(=O)n1-c1ccccc1 is 104

So, C#Cc1c(F)ccc2cc(O)cc(-c3ncc4c(N5CC6CCC(C5)N6)nc(OCC56CCCN5CC(F)C6)nc4c3F)c12 (stereo unspecified) + CC(Nc1ncnc2nc[nH]c12)c1cc2cccc(Cl)c2c(=O)n1-c1ccccc1 ? Its viability, T/C was 45.7

The measured viability, T/C associated with Cn1ncc(Cl)c1-c1cc(C(=O)NC(CN)Cc2cccc(F)c2)sc1Cl (stereo unspecified) + COc1c(OCCCN2CCOCC2)ccc2c3n(c(=NC(=O)c4cnc(N)nc4)nc12)CCN3 reads 75.3

Recorded result, CC(C)NCC(C(=O)N1CCN(c2ncnc3c2C(C)CC3O)CC1)c1ccc(Cl)cc1 (stereo unspecified) + COc1c(OCCCN2CCOCC2)ccc2c3n(c(=NC(=O)c4cnc(N)nc4)nc12)CCN3 , viability, T/C: 81.6
